FYI, the data here is from patent US20170067091.

System: Immunoglobulin E (human myeloma IgE) (Homo sapiens)
Settings: nominal Kd, no asymptote reached; described as negligible binding; fluorescence bead binding assay
Assay endpoint: Kd (nM)
// return numeric value only (unit: nM, not printed)

Ask: Suppose we examine the sequence GCCTGTTGTGAGCCTCCTGTCGAANNNNNNNNNNNNNNNNNNNNNNNNNNNNNNNNNNNNNNNNNNNNNTTGAGCGTTTATTCTTGTCTCCC [randomized 45N library] ; what Kd value has been reported?
Result: 620

---

Tested on: Immunoglobulin E (human myeloma IgE) (Homo sapiens)
Conditions: fluorescence bead binding assay, 30 min incubation, wash, thermal elution at 95 C; monovalent binding assumed; enriched pool, individual sequences not given
Assay endpoint: pKd
# log scale: pKd equals minus log10 of the concentration in mol/L

Ask: Suppose we examine the sequence GCCTGTTGTGAGCCTCCTGTCGAANNNNNNNNNNNNNNNNNNNNNNNNNNNNNNNNNNNNNNNNNNNNNTTGAGCGTTTATTCTTGTCTCCC [round-4 enriched IgE aptamer pool] ; what pKd value has been reported?
Result: 7.92
